Sourced from patent US6265423A

Tested on: T-47D human mammary cancer cells
Assay: MTT test, proliferation of T-47D
Assay type: cell-based
Details: Homo sapiens, T47D; T-47D, 10^-6 M, 72 h, control = 100%; read-out: level of proliferation
endpointLabel: activity at 1 µM (%)
Return type: number; implicit unit %.

# molecule C/C(=C\c1ccc2c(c1)C(C)(C)CCC2(C)C)c1ccc(C(=O)Nc2nnn[nH]2)cc1 [CB73364] ; its activity at 1 µM = 53

# molecule C/C(=C/c1ccc2c(c1)C(C)(C)CCS2(=O)=O)c1ccc(C(=O)O)cc1 [CB72484] ; its activity at 1 µM = 128

# molecule C/C(=C\c1ccc(C(=O)O)cc1)c1ccc2c(c1)C(C)(C)CCC2(C)C [TTNPB, reference compound] ; its activity at 1 µM = 61.7

# molecule CC(C=C/C=C(C)\C=C\C1=C(C)CCCC1(C)C)=CC(=O)O [CB13407, 9-cis retinoic acid, reference compound] ; its activity at 1 µM = 91.7

# molecule CC1=C(/C=C/C(C)=C/C=C/C(C)=C\C(=O)O)C(C)(C)CCC1 [CB81808, 13-cis retinoic acid, reference compound] ; its activity at 1 µM = 51.8

# molecule Cc1cc2c(cc1/C=C(\c1ccc(-c3nnn[nH]3)cc1)C(F)(F)F)C(C)(C)CCC2(C)C [CB63237] ; its activity at 1 µM = 125
